Tested on: CCRF-CEM leukemia
Test: NCI tumour cell line growth inhibition, 48 h
Assign TGI to each entry below.

The measured TGI associated with `COc1ccc(-c2nnc3n(C)c(=O)c4ccccc4n23)cc1O` reads > 100 µM

// `Cc1cc(C)cc(Nc2nccc(-c3c(-c4ccc(F)cc4)ncn3C3CCNCC3)n2)c1` : TGI value = 5.97 µM

The reported TGI of the molecule `COc1ccc(OC)c(CNc2ccc(O)c(C(=O)NCCc3ccc(F)cc3)c2)c1` was > 100 µM

Given item O=C1CC(c2ccccc2)Cc2nc3ccc(Cl)cc3cc21 (stereo not drawn) , the value recorded as its TGI is > 100 µM

Reported TGI of OC(COc1ccc(Cl)cc1Cl)CN1CCCC1 (stereo not drawn) : > 100 µM

Documented TGI of `CCN(CC)C(=S)SNCCc1ccc(S(N)(=O)=O)cc1` : 36.8 µM

Entry under test: COc1ccc(N2C(=O)C3c4[nH]c5ccccc5c4C4CCC(C(C)C)CC4C3C2=O)cc1 (stereo not drawn) . Its TGI was > 100 µM

The molecule `N=C1N=C(N)c2cc3c(cc21)SCCSCCCSCCS3` showed TGI equal to > 25.9 µM

Record `Cc1sc2nc(-c3ccccn3)c(/C=N/N=C(N)N)n2c1C` . Reported TGI: 19 µM

C[C@H](CC[C@@H](O)C(C)(C)O)[C@H]1CC[C@@]2(C)[C@@H]3CC=C4[C@@H](CC[C@H](OC5OC(CO)C(O)C(O)C5O)C4(C)C)[C@]3(C)C(=O)C[C@]12C (stereo partly drawn) yielded TGI of 70.9 µM

molecule `O=C([C@H](O)[C@@H](O)c1ccc(Br)cc1)C12CC3CC(CC(C3)C1)C2` , TGI observed: > 30.8 µM

Memo: `O=C1Cc2ccccc2N1/N=C\c1ccc(O)cc1` , reported TGI: > 100 µM

So for `N=C(N)n1[nH]c2c(c1=O)CCC2` , the logged TGI turned out to be > 100 µM

Kindly note the recorded TGI for CC1OC(OC2C(OC3C[C@@]4(C)C(C[C@H](O)[C@H]5[C@H](C6(C)CCC(C(C)(C)O)O6)CCC54C)[C@]4(C)CC[C@@H](O)C(C)(C)C34)OC(CO)C(O)C2O)C(O)C(O)C1O (stereo partly drawn) (tested in a mixture with another compound) , which is > 100 µM

Reported TGI ( CC(O)(c1ccccc1)c1nccc2ccccc12 (stereo not drawn) ) = > 100 µM

TGI reported for this molecule COCC(=O)[C@]1(O)Cc2c(O)c3c(c(O)c2[C@@H](OC2CC(N)C(O)C(C)O2)C1)C(=O)c1c(OC)cccc1C3=O (stereo partly drawn) : 0.4 µM

The molecule listed as `O=C(Cc1ccc(/C=C/C(=O)c2ncc[nH]2)cc1)Nc1ccc(Br)cc1` shows TGI equal to > 16.7 µM

For reference, reported TGI for `BrP(NC1CCCCCC1)(c1ccccc1)(c1ccccc1)c1ccccc1` stands at 29 µM

Data point: `N#CC1N(C(=O)c2ccc(F)cc2)c2ccccc2N1C(=O)c1ccc(F)cc1` ; TGI = 87.2 µM

Please fill in: TGI reported for CC(C)(C)OC(=O)NC(CCCCNC(=O)OCc1ccccc1)C(=O)NC(CCCCNC(=O)OCc1ccccc1)C(=O)ON1C(=O)CCC1=O (stereo not drawn) = > 100 µM

The molecule listed as COc1cc(C2c3cc4c(cc3C3OC(=O)C2C3CO)OCO4)cc(OC)c1OC (stereo not drawn) shows TGI equal to > 100 µM

Short answer for `CCOC(=O)Nc1nc2c(F)c(F)c(F)cc2s1` : TGI was > 100 µM

The recorded TGI for COC(=O)C1=C(OC(=O)/C(=C/c2ccc(Cl)cc2)c2ccccc2)C(C(=O)OC)[C@@]2(O)[C@@H](C(=O)OC)[C@H](C)C[C@@H]1[C@@H]2C(=O)OC (stereo partly drawn) is > 100 µM

====

Task for the reader: assign each of the following compounds its reported TGI.
Test system: SK-MEL-5 melanoma
Experiment: NCI tumour cell line growth inhibition, 48 h
# value in µM; strip the unit string

Please fill in: TGI reported for `C[C@@H]1CN(Cc2ccc(/C=C/c3n[nH]c4ccc5nc(-c6cn[nH]c6C(F)(F)F)c6c(c5c34)CCCC6)cc2)C[C@H](C)O1` = 24.7

Entry `Cc1cc[c-]cc1.Fc1c[c-]c(-c2ccccn2)c(F)c1.N#CCC[PH+](CCC#N)c1ccccc1.[Pt+2]` — recorded TGI = 5.36

Form: compound = COc1cc2c(cc1OCCCCCCNC(=O)c1cc3ccccc3[nH]1)N=CC1CCCN1C2=O (centres undefined) ; TGI = 32

Note to self: TGI recorded for CC(=O)OC1CCC2(C)C(CCC3C2CCC2(C)C(C4=CC(=O)OC4)CCC32)C1 (centres undefined) was 6.58

Sample Cc1cn(C2C=CC(=O)C(C)O2)c(=O)[nH]c1=O (centres undefined) ; TGI observed: 28.1

According to the records, this compound CC1CCC2c3c([nH]c4ccccc34)C3C(=O)N(C4CCCCC4)C(=O)C3C2C1 (centres undefined) displays TGI of 36.1

====

Tested on: NCI/ADR-RES ovarian
Assay: NCI tumour cell line growth inhibition, 48 h
Parameter: TGI

// TGI value for N#CSCC1COc2ccccc2O1 (centres undefined) : > 10 µM

Notebook: `Cn1c2ccccc2c2cc(-c3ccccc3)c3c(c21)C(=O)C=CC3=O` , TGI read as > 100 µM

Lab note: `O=C1C[C@H](c2ccccc2)C2(C(=O)c3ccccc3C2=O)[C@@H](c2ccccc2)C1` gave TGI of > 100 µM

The molecule listed as `FC1CCN(C2(c3cccs3)CCCCC2)CC1` has a reported TGI of > 100 µM

====

Tested on: T-47D breast
Test: NCI tumour cell line growth inhibition, 48 h
Parameter: TGI

For reference, reported TGI for `COc1ccc(C(=O)Nc2ncc(Cc3ccc(F)cc3)s2)cc1` stands at > 100 µM

The reported TGI of the compound Cc1ccc([N+](=O)[O-])cc1S(=O)(=O)Nc1ccc(C2=NN(c3ccc([N+](=O)[O-])cc3[N+](=O)[O-])C(c3ccccc3O)C2)cc1 (stereo not drawn) was > 100 µM

Quick note, TGI for `CCN(CC)c1ccc(/C=C/C(=O)c2cccc(NS(C)(=O)=O)c2)cc1` landed at > 100 µM

====

System: COLO 205 colon
Assay: NCI tumour cell line growth inhibition, 48 h
Provide the recorded TGI for the entries that follow.
Report the value in µM with no unit label.

Recorded TGI (compound `Cn1cc(-c2csc(-c3cn(CCN4CCOCC4)c4ccc(F)cc34)n2)c2cccnc21` ): 5.23

Just so you know, measured TGI for `Nc1c(C(=O)Nc2cccc3ccccc23)sc2nc3c(cc12)CCCC3` came out at 9.53

response.value for `COc1ccc(N2CCN(CC(=O)N3CCN(c4nnc(-c5ccccc5)c(-c5ccccc5)n4)CC3)CC2)cc1` (field: TGI) = 13.7

Per the record, `N=C1N=C(N)c2cc3c(cc21)SCCSCCCSCCS3` has TGI of 16.9

====

Tested on: OVCAR-8 ovarian
Experiment: NCI tumour cell line growth inhibition, 48 h
Parameter: TGI

# TGI (compound: `Nc1c(C(=O)Nc2cccc3ccccc23)sc2nc3c(cc12)CCCC3` ) is > 100 µM

Looking up `NCCCCNCCCN` , I see its TGI listed as > 100 µM

TGI in this record for `C[C@]12CCC(=O)C=C1CC[C@@H]1[C@@H]2C(=O)C[C@@]2(C)[C@H]1CC[C@]2(O)C(=O)CO` : > 100 µM

TGI for `Cc1cc(N(CCCNc2ccnc3cc(Cl)ccc23)Cc2cccs2)nc(Cl)n1` is 34.9 µM

response.value for COC(=O)C1(NC(=O)C(N)CC(=O)O)C(C)C1C (stereo not given) (field: TGI) = > 100 µM

====

Tested on: SN12C renal
Test: NCI tumour cell line growth inhibition, 48 h
I'd appreciate it if you could supply TGI values for the items below.
Give the value in µM but do not write µM after it.

Input `O=C1C=C(N2CC2)c2ccccc2C1=O` . Output TGI: 3.22

Please fill in: TGI reported for COc1cc2c3c(cc(Cl)nc3c1OC)C(O)(CC(C)=O)C(=O)N2 (stereo not given) = 36.1

O=C1C=CC2(O[C@@H](Cc3ccccc3)[C@H](Cc3ccccc3)O2)C(SC(=O)c2ccccc2)C1 (stereo not given in full) has a reported TGI of 3.97

====

Answer each item with its documented TGI.
Tested on: OVCAR-3 ovarian
Assay: NCI tumour cell line growth inhibition, 48 h

Sure, the documented TGI for `Cc1cc(=O)c2c(O)c3c(O)cc(O)c4c5c(O)cc(O)c6c(O)c7c(=O)cc(C)c8c1c2c(c34)c(c65)c78` is > 100 µM

// field: TGI; key: `COc1cc(C)c(C(=O)/C=C/c2cc(OC)c(O)c(OC)c2)cc1O` ; value = 91.1 µM

Item: `Cc1ccnc(NC(=S)Nc2ccccc2Cl)c1` | TGI: > 100 µM

The reported TGI of the compound `COc1ccc(/C=C/c2nc(N3CCOCC3)c3cc(F)c(F)cc3n2)cc1OC` was > 100 µM

The recorded TGI for entry COC(=O)C1(NC(=O)C(N)CC(=O)O)C(C)C1C (configuration not stated) equals > 100 µM

Summary for this compound, `OCCc1cnco1` : TGI is > 100 µM

TGI reading for `O=C(c1ccc(Cl)cc1)N(Cc1cccnc1)C(=S)N(Cc1cccnc1)C(=O)c1ccc(Cl)cc1` : > 100 µM

Short answer for Cc1cn(C2C=CC(=O)C(C)O2)c(=O)[nH]c1=O (configuration not stated) : TGI was 31.4 µM

Just so you know, measured TGI for `CN(C)c1nc(N(C)C)nc(N(C)CN(C)c2nc(N(C)C)nc(N(C)C)n2)n1` came out at > 100 µM

The compound listed as `C(=C1\CCC/C(=C/c2ccccc2)C1=NNc1ccccc1)/c1ccccc1` has a reported TGI of > 100 µM

For this compound ( C1OCN2c3nonc3N3COCN4c5nonc5N1C2C43 (configuration not stated) ), measured TGI is > 100 µM

Kindly note the recorded TGI for COc1cc2c3c(cc(Cl)nc3c1OC)C(O)(CC(C)=O)C(=O)N2 (configuration not stated) , which is > 100 µM

For reference, reported TGI for `Cc1ccc(O)c(Cc2nc3ccccc3nc2-c2cccc(Br)c2)c1` stands at > 100 µM

Noted for `Cc1ccccc1NC(=S)N/N=C(/c1ccccc1)c1ccccn1` : its TGI reads 10.5 µM

Looking up `O=[N+]([O-])c1cccc2nc3ccccc3c(NCCC[N+]3([O-])CCCCC3)c12` , I found its TGI recorded as 0.852 µM

The compound listed as `FC1CCN(C2(c3cccs3)CCCCC2)CC1` shows TGI equal to > 100 µM

The compound listed as `CC(=O)OCCC/C(=C\c1ccc2ccccc2c1)[N+](=O)[O-]` shows TGI equal to 3.08 µM

// sample `COc1ccc2oc(-c3ccncc3)cc(=O)c2c1` , its TGI was > 100 µM

Value of TGI reported for the compound `O=C(c1ccc(Cl)cc1)N(C(=S)N1CCN(c2ccccn2)CC1)c1ccccc1` is > 100 µM

Reported TGI for `Cc1ccc(C(=O)Nc2ccc(CN3CCN(C)CC3)c(C(F)(F)F)c2)cc1C#Cc1cncc2ncccc12` was 14.7 µM

Value of TGI reported for the compound `NNC(=O)CC(=O)Nc1ccccc1F` is > 100 µM

Measured TGI of `N/C(=N\OC(=O)NC(Cl)=C(Cl)Cl)c1cc(C(F)(F)F)cc(C(F)(F)F)c1` : 28.6 µM

The measured TGI associated with COCC(=O)[C@]1(O)Cc2c(O)c3c(c(O)c2[C@@H](OC2CC(N)C(O)C(C)O2)C1)C(=O)c1c(OC)cccc1C3=O (some centres not stated) reads 0.536 µM

get_value(item= `CCOC(=O)c1c(-c2[nH]c(C(=O)OCc3ccccc3)c(C)c2C(=O)OCC)[nH]c(C(=O)OCc2ccccc2)c1C` , readout=TGI) returns > 100 µM

Value of TGI reported for the compound `N#Cc1cc2cc3c4c(c2oc1=O)CCCN4CCC3` is > 100 µM

So for C=CCN1CC2CN=NC2(C#N)C1 (configuration not stated) , the logged TGI turned out to be > 100 µM

Record `O=C(c1ccc(O)cc1)c1ccc(C(=O)c2ccc(O)cc2)cc1` . Reported TGI: > 100 µM
